Source: paper PMC4555227

- assayed system: T1, GABPα-GST (ETS domain);CREB1 B-ZIP domain (mouse?;mouse, UniProt Q00422;Q01147 320-400;269-327, |)
- T1 sequence 1: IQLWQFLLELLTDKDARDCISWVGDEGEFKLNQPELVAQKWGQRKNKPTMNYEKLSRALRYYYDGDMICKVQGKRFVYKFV
- T1 sequence 2: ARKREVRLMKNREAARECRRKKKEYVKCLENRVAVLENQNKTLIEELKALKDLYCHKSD
- measurement description: PBM; 8 ng:8 ng plasmid; PBM as in Badis et al. 2009 (buffer, salt, pH, temperature not stated); IVT proteins from 2.5-100 ng plasmid; Alexa Fluor 647 anti-GST detection
- condition parameters: protein: ivt;ivt; tags: GST;none; copies: 1;2; blunt
measured endpoint: binding signal

Q: Returns the measured binding signal for the input binder. Input: CC SNP CGGGAAGT (dsDNA) DNA 1: GTCCTCAAGACGGGAAGTGACGTCACGACTCAGGTGGGACACACTTTAACACATGGAGAG DNA 2: CTCTCCATGTGTTAAAGTGTGTCCCACCTGAGTCGTGACGTCACTTCCCGTCTTGAGGAC
A: ~16 fold increase by CREB1

Alright, here's another binder for you.
Q: Returns the measured binding signal for the input binder. Input: CC SNP TCGGAAGT (dsDNA) DNA 1: GTCCTCAAGATCGGAAGTGACGTCACGACTCAGGTGGGACACACTTTAACACATGGAGAG DNA 2: CTCTCCATGTGTTAAAGTGTGTCCCACCTGAGTCGTGACGTCACTTCCGATCTTGAGGAC
A: < 20 fold increase by CREB1 (up to)
